- Test system: Plasmodium berghei
- protocol-text: Screen against P. berghei liver stage (PbLuc), transformed with Luciferase, at 2uM
- Type: functional, HepG2
- condition-details: tested at 2 uM
Screen size: about 68,000 compounds; about 2,700 (4%) showed an effect of 50% or more. What follows is part of a selection rich in strong results, with near analogues and random picks from the rest.
measured-endpoint: INHIBITION
// return the numeric value with its unit appended

Worked cases, INHIBITION given:
{"compound": "Cc1cnn(CC2CCCN2Cc2coc(-c3ccc(F)cc3)n2)c1 (stereo unspecified)", "INHIBITION": "7.8%"}
{"compound": "O=C(Cc1cccs1)N1C[C@H]2CC[C@@H](C1)N(Cc1ccccn1)C2=O", "INHIBITION": "14.63%"}
{"compound": "Cc1ccc(C2COCCN2C(=O)c2ccc(C#N)cc2)o1 (stereo unspecified)", "INHIBITION": "54.44%"}

**Query** What INHIBITION value was documented for this compound, CC1(C)CC1(C(=O)N1CC(c2cccnc2)C1)c1ccccc1F (stereo unspecified) ?
**Result** 14.82%

**Query** What INHIBITION value was documented for this compound, COCc1ccc(C(=O)N2CCOCC2c2ccc(C)o2)cc1 (stereo unspecified) ?
**Result** 62.13%

**Query** What INHIBITION value was documented for this compound, CN(C)S(=O)(=O)N1CCC(Oc2ccc(C#N)cn2)CC1 ?
**Result** 31.38%

**Query** What INHIBITION value was documented for this compound, O=C(c1ccccc1F)N1CCN(c2ccc(-n3cccc3)nn2)CC1 ?
**Result** -17.9%

**Query** What INHIBITION value was documented for this compound, Cc1ccc(C2COCCN2C(=O)c2ccsc2)o1 (stereo unspecified) ?
**Result** 16.01%

**Query** What INHIBITION value was documented for this compound, CN(C)CCN1CC(C(=O)N2CCC(c3cc(=O)[nH]cn3)CC2)CC1=O (stereo unspecified) ?
**Result** 47.64%

**Query** What INHIBITION value was documented for this compound, Cc1ccc(C2COCCN2C(=O)c2ccc(CN(C)C)cc2)o1 (stereo unspecified) ?
**Result** 27.84%

**Query** What INHIBITION value was documented for this compound, Cc1nc2ccccc2nc1NCc1cccc(OCC2CCCO2)c1 (stereo unspecified) ?
**Result** 17.25%

* * *

- System: Plasmodium berghei
- protocol-text: Screen against P. berghei liver stage (PbLuc), transformed with Luciferase, at 2uM
- Type: functional, HepG2
- condition-details: tested at 2 uM
Screen size: about 68,000 compounds; about 2,700 (4%) showed an effect of 50% or more. The sample as a whole holds a higher share of strong results than the screen did.
measured-endpoint: INHIBITION (%)
State the answer as a number, implicitly in %.

{"compound": "CN1C(=O)C2(CCNCC2)c2cc(F)ccc21", "measured-on": "Plasmodium berghei", "result-number": 37.75}
{"compound": "CN(C)Cc1nnc(C2CCCN(c3nc(C(N)=O)cs3)C2)n1C (stereo unspecified)", "measured-on": "Plasmodium berghei", "result-number": 12.29}
{"compound": "Cc1noc(C)c1CC(=O)N1CCCN(Cc2cscn2)CC1", "measured-on": "Plasmodium berghei", "result-number": 25.74}
{"compound": "CC(C)CNC(=O)c1ccc(NC(=O)NC(C)c2ccccn2)cc1 (stereo unspecified)", "measured-on": "Plasmodium berghei", "result-number": -17.17}
{"compound": "Cc1cccc(-n2nnnc2C(C)(C)Nc2ccccc2C)c1", "measured-on": "Plasmodium berghei", "result-number": -20.72}

Now consider a different compound.
**Query** What INHIBITION value was documented for this compound, Cc1cn2nc(N3CCN(Cc4c(C)noc4C)CC3)sc2n1 ?
**Result** -4.99

* * *

- Tested on: Plasmodium berghei
- protocol-text: Screen against P. berghei liver stage (PbLuc), transformed with Luciferase, at 2uM
- Assay type: functional, HepG2
- condition-details: tested at 2 uM
In all, about 68,000 compounds went through this assay and about 2,700 (4%) showed an effect of 50% or more. The entries come from a sample that favours strong results as a whole.
measured-endpoint: INHIBITION (%)
State the answer as a number, implicitly in %.

**Query** What INHIBITION value was documented for this compound, O=C(c1cc(=O)[nH]c(=O)[nH]1)N1CCCCC1c1nc2cc(F)ccc2[nH]1 (centres undefined) ?
**Result** -18.49

**Query** What INHIBITION value was documented for this compound, COc1cccc(CC(=O)NC2CCCc3cn[nH]c32)c1 (centres undefined) ?
**Result** -1.29

**Query** What INHIBITION value was documented for this compound, Cc1ccc(CC(=O)N2CCCCC2c2nc(C)cs2)cn1 (centres undefined) ?
**Result** -39.92

**Query** What INHIBITION value was documented for this compound, O=C(CN1CCCCCC1=O)NCC1CCN(c2ccccc2)C1 (centres undefined) ?
**Result** -17.17

**Query** What INHIBITION value was documented for this compound, COc1ncccc1CNC(=O)NC(C)Cn1cccn1 (centres undefined) ?
**Result** 31.7

* * *

- Test system: Plasmodium berghei
- protocol-text: Screen against P. berghei liver stage (PbLuc), transformed with Luciferase, at 2uM
- Type: functional, HepG2
- condition-details: tested at 2 uM
About 2,700 (4%) of roughly 68,000 compounds showed an effect of 50% or more. The sample holds strong results, similar compounds and a random draw of the others, so the mix is not that of the screen.
measured-endpoint: INHIBITION (%)
State the answer as a number, implicitly in %.

{"molecule": "COc1cccc(OCC2CCCN(C(=O)CCCn3cccn3)C2)c1 (stereo unspecified)", "measured-endpoint": "INHIBITION", "unit-name": "%", "result-number": 31.51}
{"molecule": "COc1ccccc1C(=O)N1CCN(C(=O)CCn2ccnc2)CC1", "measured-endpoint": "INHIBITION", "unit-name": "%", "result-number": 51.4}
{"molecule": "COc1cccc(OCC2CCCN(C(=O)CCc3cc(O)no3)C2)c1 (stereo unspecified)", "measured-endpoint": "INHIBITION", "unit-name": "%", "result-number": -29.65}
{"molecule": "COc1ccccc1C1CNCCN1C(=O)c1ccc(F)cc1 (stereo unspecified)", "measured-endpoint": "INHIBITION", "unit-name": "%", "result-number": -20.28}
{"molecule": "COc1cccc(C(=O)N2CCN(C(=O)CCn3ccnc3)CC2)c1", "measured-endpoint": "INHIBITION", "unit-name": "%", "result-number": -14.71}

Now consider a different molecule.
**Query** What INHIBITION value was documented for this molecule, Cc1nc(-c2cc(Cl)cc3c2OC(CN)C3)c[nH]1 (stereo unspecified) ?
**Result** 26.74

* * *

- System: Plasmodium berghei
- protocol-text: Screen against P. berghei liver stage (PbLuc), transformed with Luciferase, at 2uM
- Assay type: functional, HepG2
- condition-details: tested at 2 uM
The whole screen tested about 68,000 compounds, of which about 2,700 (4%) showed an effect of 50% or more. What follows is part of a selection rich in strong results, with near analogues and random picks from the rest.
Label 1.0 for high-side INHIBITION (at or above 30%) and 0.0 for low-side INHIBITION (below it).

Past entries and their recorded results:
{"compound": "COCCN1C[C@H]2[C@@H](C1)N(C(=O)CCc1ccccc1)CC[C@H]2OC", "assigned-label": 0.0}
{"compound": "CC(C)(C)Nc1nc(-c2cccnc2)c(-c2ccnc(NCCO)n2)s1", "assigned-label": 0.0}
{"compound": "COCCN1C[C@@H]2[C@@H](OC)CCN(C(=O)Cc3ccccc3)[C@@H]2C1", "assigned-label": 1.0}
{"compound": "CC(C)Nc1ncccc1C(=O)NC1CC(=O)N(CC(F)(F)F)C1 (stereo unspecified)", "assigned-label": 0.0}
{"compound": "CCC(NC(=O)c1nn(C)cc1C(=O)O)c1ccccc1 (stereo unspecified)", "assigned-label": 1.0}

Consider now this further compound.
**Query** Decide: is the reported value of INHIBITION for COC[C@@]12CCO[C@@H]1CCN(C(=O)Cc1ccccc1F)C2 equal to or greater than 30%?
**Result** 0.0

* * *

Measured INHIBITION values are reported for all entries that follow.
- System: Plasmodium berghei
- protocol-text: Screen against P. berghei liver stage (PbLuc), transformed with Luciferase, at 2uM
- Type: functional, HepG2
- condition-details: tested at 2 uM
Out of some 68,000 compounds screened, about 2,700 (4%) showed an effect of 50% or more. For the sample, strong results were picked, then their nearest neighbours and some compounds at random.
State the answer as a number, implicitly in %.

{"molecule": "Cn1[nH]c(C2CCC2)c(-c2ccc3c(c2)OCO3)c1=N", "result-number": 14.06}
{"molecule": "COCc1ccccc1C(=O)N1CCCC(n2nc(C)cc2C)C1 (centres undefined)", "result-number": 21.91}
{"molecule": "N#Cc1ccc(CS(=O)(=O)NC(=O)c2ccc3c(c2)COC3)cc1", "result-number": -14.32}
{"molecule": "COc1ccc(CCN(C)C(=O)CN2C(=O)OC[C@@H]2C(C)C)cc1OC", "result-number": -4.77}
{"molecule": "CSCCc1nc(-c2ccc3c(c2)OCO3)n(C)n1", "result-number": 12.74}

Now consider a different molecule.
**Query** What INHIBITION value was documented for this molecule, Fc1ccc(N2CCCN(c3ccc(Cn4ccnc4)cn3)CC2)cc1 ?
**Result** 54.49
